The origin of these recorded values is patent US20240374573A1.

Molecular target: α2AAR (Homo sapiens, UniProt P08913)
Construct: host or cells: HEK293 (membranes)
Sequence (P08913 whole entry, species assumed): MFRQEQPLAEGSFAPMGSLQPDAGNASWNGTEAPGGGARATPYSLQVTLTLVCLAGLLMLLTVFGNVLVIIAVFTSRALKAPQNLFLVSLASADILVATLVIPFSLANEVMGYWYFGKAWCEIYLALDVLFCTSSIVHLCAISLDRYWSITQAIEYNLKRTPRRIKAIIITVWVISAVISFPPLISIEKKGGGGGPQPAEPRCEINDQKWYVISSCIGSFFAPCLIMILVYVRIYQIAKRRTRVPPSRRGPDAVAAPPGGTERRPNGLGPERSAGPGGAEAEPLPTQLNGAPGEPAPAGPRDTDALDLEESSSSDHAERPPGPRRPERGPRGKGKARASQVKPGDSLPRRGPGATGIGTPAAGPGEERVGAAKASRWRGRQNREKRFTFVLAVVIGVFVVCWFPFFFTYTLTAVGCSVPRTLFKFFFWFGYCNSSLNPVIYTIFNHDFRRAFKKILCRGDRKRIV
Assay: α2AAR binding assay ([3H]-RX 821002 radioligand)
Conditions: [3H]-RX 821002 0.5 nM, HEK293 membranes; read-out: α2A affinity (Ki)
pKi: −log10 of the molar value.
measure-name: pKi

[
  {
    "compound": "Cc1cccc(C(Cc2ccc(C(=O)N(C)C)cc2)c2c[nH]cn2)c1C (stereo not drawn)",
    "pKi": "> 8.00"
  },
  {
    "compound": "Cc1cccc(C(c2cccc(NC(=O)CN3CCNCC3)c2)c2c[nH]cn2)c1C (stereo not drawn)",
    "pKi": "6.60 to 7.30"
  },
  {
    "compound": "Cc1cccc(C(Cc2ccc(C(N)=O)cc2)c2c[nH]cn2)c1C (stereo not drawn)",
    "pKi": "> 8.00"
  },
  {
    "compound": "Cc1cccc(C(CCCCCC(N)=O)c2c[nH]cn2)c1C (stereo not drawn)",
    "pKi": "6.00 to 6.60"
  },
  {
    "compound": "CC(=O)Nc1ccc(CC(c2c[nH]cn2)c2cccc(C)c2C)cn1 (stereo not drawn)",
    "pKi": "6.60 to 7.30"
  }
]

// query Tell me its pKi given Cc1c(F)cccc1C(c1cccc(NC(=O)CC2CCOCC2)c1)c1c[nH]cn1 (stereo not drawn) as the entry.
// result 6.60 to 7.30

// query Tell me its pKi given Cc1cccc(C(Cc2ccc(NC(=O)NC3CCOC3)cc2)c2c[nH]cn2)c1C (stereo not drawn) as the entry.
// result > 8.00

// query Tell me its pKi given COCC(=O)Nc1ccc(CC(c2c[nH]cn2)c2cccc(C)c2C)cc1 (stereo not drawn) as the entry.
// result > 8.00

// query Tell me its pKi given CC(=O)Nc1ccc(CC(c2c[nH]cn2)c2cccc(C)c2C)cc1 (stereo not drawn) as the entry.
// result > 8.00

###

Items are presented alongside their recorded EC50.
Molecular target: α2AAR (α2A-adrenergic receptor) (Homo sapiens, UniProt P08913)
Construct: expressed in transfected cells; host or cells: HEK293
Sequence (P08913 whole entry, species assumed): as above
Assay: α2AAR FLIPR assay (agonist activity)
Format: cell-based
Conditions: FLIPR, α2AAR cell line hosted in HEK293 cells; read-out: α2A agonist activity (EC50)

Solved entries (count: 5):
[
  {
    "compound": "Cc1cccc(C(Cc2ccc(C(N)=O)c(F)c2)c2c[nH]cn2)c1C (single isomer, unassigned) [156-B]",
    "EC50": "< 10 nM"
  },
  {
    "compound": "COCCOCCNC(=O)c1cccc(C(c2c[nH]cn2)c2cccc(C)c2C)c1 (centres unmarked)",
    "EC50": "10 to 50 nM"
  },
  {
    "compound": "CONC(=O)Nc1cccc(C(c2c[nH]cn2)c2cccc(C)c2C)c1 (centres unmarked)",
    "EC50": "10 to 50 nM"
  },
  {
    "compound": "Cc1cccc(C(c2cccc(NC(=O)CC[n+]3ccccc3)c2)c2c[nH]cn2)c1C (centres unmarked)",
    "EC50": "50 to 250 nM"
  },
  {
    "compound": "COCCC(=O)Nc1cccc(C(c2c[nH]cn2)c2cccc(C)c2C)c1 (centres unmarked)",
    "EC50": "10 to 50 nM"
  }
]

// query Tell me its EC50 given Cc1cccc(C(Cc2ccc(C(C)C(=O)O)cc2)c2c[nH]cn2)c1C (centres unmarked) [compound 174] as the entry.
// result 10 to 50 nM

// query Tell me its EC50 given Cc1cccc(C(Cc2ccc3c(c2)OCCO3)c2c[nH]cn2)c1C (centres unmarked) as the entry.
// result 50 to 250 nM

// query Tell me its EC50 given Cc1cccc(C(c2cccc(NC(=S)CC3CCOCC3)c2)c2c[nH]cn2)c1C (centres unmarked) as the entry.
// result 10 to 50 nM
